meta.source: patent US20220402867A1

Molecular target: GST-RORγ LBD (263-509) (Homo sapiens)
Construct: GST-RORγ LBD ((263-509) (produced at ChemPartner))
Sequence (P51449 263-509): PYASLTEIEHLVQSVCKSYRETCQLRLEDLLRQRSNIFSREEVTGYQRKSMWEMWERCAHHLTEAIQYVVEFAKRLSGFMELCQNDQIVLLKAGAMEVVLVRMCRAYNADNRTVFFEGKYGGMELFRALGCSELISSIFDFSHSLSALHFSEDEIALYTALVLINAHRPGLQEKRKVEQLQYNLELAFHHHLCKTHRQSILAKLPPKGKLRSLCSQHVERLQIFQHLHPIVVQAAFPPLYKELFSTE
Test: TR-FRET assay of agonistic activity on RORγ receptor
Type: biochemical
Conditions: maximum activation rate, TOP of fitted curve
Each record here notes measured Emax.
assay_endpoint: Emax (%)

INSERT INTO assay_data (molecule, numeric_result) VALUES
  ('CCS(=O)(=O)c1ccc(CC(=O)Nc2cc(Cl)c(-c3ccc(S(C)(=O)=O)cc3)c(Cl)c2)nc1', 170),
  ('CS(=O)(=O)c1ccc(C(CO)C(=O)Nc2cc(Cl)c(-c3ccc(S(=O)(=O)C4CC4)cc3)c(Cl)c2)cc1 (stereo not shown) [Example 33]', 202),
  ('CCS(=O)(=O)c1ccc(CC(=O)Nc2cc(Cl)c(-c3ccc(S(=O)(=O)C(C)C)cc3)c(Cl)c2)cc1', 223),
  ('CS(=O)(=O)c1ccc(-c2c(Cl)cc(NC(=O)Cc3ccc(S(C)(=O)=O)cn3)cc2Cl)cc1', 159);

----------
Quick reference for half-life among some compounds
assay: Pharmacokinetic (PK) assay in mice; assay type: in vivo; settings: mouse, plasma; IV 1 mg/kg, CD-1 mice
assay_endpoint: half-life (h)

INSERT INTO assay_data (compound, numeric_result) VALUES
  ('CCS(=O)(=O)c1ccc(CC(=O)Nc2cc(Cl)c(-c3ccc(S(=O)(=O)C4CC4)cc3)c(Cl)c2)nc1 [Example 21]', 4.19),
  ('CS(=O)(=O)c1ccc(CC(=O)Nc2cc(Cl)c(-c3ccc(S(=O)(=O)C4CC4)cc3)c(Cl)c2)cc1 [Example 11]', 6.33),
  ('CCS(=O)(=O)c1ccc(C(COC)C(=O)Nc2cc(Cl)c(-c3ccc(S(=O)(=O)C4CC4)cc3)c(Cl)c2)cc1 (single isomer, unassigned) [Example 41]', 1.7),
  ('CCS(=O)(=O)c1ccc(C(CO)C(=O)Nc2cc(Cl)c(-c3ccc(S(=O)(=O)C4CC4)cc3)c(Cl)c2)cc1 (single isomer, unassigned) [Example 39]', 3.7),
  ('CCS(=O)(=O)c1ccc(CC(=O)Nc2cc(Cl)c(-c3ccc(S(C)(=O)=O)cc3)c(Cl)c2)cc1 [Example 2]', 1.76),
  ('CC(C)(C[C@H]1CN(S(=O)(=O)c2cccc(C(F)(F)F)c2)c2cc(-c3cc(F)cc(OC(F)F)c3)ccc2O1)C(=O)O [LYC-55716, reference compound]', 2.63);

----------
test: Metabolic stability in mouse liver microsomes; assay type: in vitro ADME, CD-1 mice; conditions: 60 min
Entries annotated with measured % Remaining (T = 60 min)
assay_endpoint: % Remaining (T = 60 min) (%)

INSERT INTO measurements (compound, numeric_result) VALUES
  ('CCS(=O)(=O)c1ccc(CC(=O)Nc2cc(Cl)c(-c3ccc(S(=O)(=O)C4CC4)cc3)c(Cl)c2)nc1 [Example 21]', 56),
  ('CCS(=O)(=O)c1ccc(-c2c(Cl)cc(NC(=O)C(COC)c3ccc(S(C)(=O)=O)cc3)cc2Cl)cc1 (stereo not shown) [Example 19]', 23.10),
  ('CS(=O)(=O)c1ccc(CC(=O)Nc2cc(Cl)c(-c3ccc(S(C)(=O)=O)cc3)c(Cl)c2)cc1 [Example 7]', 88.20),
  ('CCS(=O)(=O)c1ccc(-c2c(Cl)cc(NC(=O)Cc3ccc(S(C)(=O)=O)cc3)cc2Cl)cc1 [Example 4]', 22.20);

----------
assay: Pharmacokinetic (PK) assay in mice; type: in vivo; details: mouse, plasma; Po 5 mg/kg vs IV 1 mg/kg, CD-1 mice
assay_endpoint: bioavailability (%)

INSERT INTO measurements (compound, units_text, numeric_result) VALUES
  ('CCS(=O)(=O)c1ccc(C(CO)C(=O)Nc2cc(Cl)c(-c3ccc(S(=O)(=O)C4CC4)cc3)c(Cl)c2)cc1 (single isomer, unassigned)', '%', 17.1),
  ('COC[C@H](C(=O)Nc1cc(Cl)c(-c2ccc(S(=O)(=O)C3CC3)cc2)c(Cl)c1)c1ccc(S(C)(=O)=O)cc1 (single isomer, unassigned)', '%', 32.8),
  ('COCC(C(=O)Nc1cc(Cl)c(-c2ccc(S(=O)(=O)C3CC3)cc2)c(Cl)c1)c1ccc(S(C)(=O)=O)cc1 (stereo not drawn)', '%', 57.3),
  ('CS(=O)(=O)c1ccc(CC(=O)Nc2cc(Cl)c(-c3ccc(S(=O)(=O)C4CC4)cc3)c(Cl)c2)cc1', '%', 86.1),
  ('CCS(=O)(=O)c1ccc(-c2c(Cl)cc(NC(=O)C(COC)c3ccc(S(=O)(=O)CC)cc3)cc2Cl)cc1 (stereo not drawn)', '%', 24.2),
  ('CCS(=O)(=O)c1ccc(CC(=O)Nc2cc(Cl)c(-c3ccc(S(C)(=O)=O)cc3)c(Cl)c2)cc1', '%', 112);

----------
experiment: Pharmacokinetic (PK) assay in mice; type: in vivo; details: mouse, plasma; IV 1 mg/kg, CD-1 mice
For each record, check the reported AUC(0-t): if it is below 2000 ng·h/mL write y, else write n.

INSERT INTO measurements (compound, group_label) VALUES
  ('CCS(=O)(=O)c1ccc(CC(=O)Nc2cc(Cl)c(-c3ccc(S(=O)(=O)C4CC4)cc3)c(Cl)c2)nc1', 'n'),
  ('CCS(=O)(=O)c1ccc(-c2c(Cl)cc(NC(=O)C(COC)c3ccc(S(=O)(=O)CC)cc3)cc2Cl)cc1 (stereo not drawn)', 'y'),
  ('CCS(=O)(=O)c1ccc(C(COC)C(=O)Nc2cc(Cl)c(-c3ccc(S(=O)(=O)C4CC4)cc3)c(Cl)c2)cc1 (stereo not drawn) [Example 16]', 'n'),
  ('CS(=O)(=O)c1ccc(C(CO)C(=O)Nc2cc(Cl)c(-c3ccc(S(=O)(=O)C4CC4)cc3)c(Cl)c2)cc1 (single isomer, unassigned)', 'n'),
  ('CCS(=O)(=O)c1ccc(C(COC)C(=O)Nc2cc(Cl)c(-c3ccc(S(=O)(=O)C4CC4)cc3)c(Cl)c2)cc1 (single isomer, unassigned) [Example 41]', 'y');

----------
Cmax values, listed per item
assay: Pharmacokinetic (PK) assay in mice; type: in vivo; details: mouse, plasma; Po 5 mg/kg, CD-1 mice
assay_endpoint: Cmax (ng/mL)

INSERT INTO results (molecule, assay_endpoint, numeric_result) VALUES
  ('COCC(C(=O)Nc1cc(Cl)c(-c2ccc(S(=O)(=O)C3CC3)cc2)c(Cl)c1)c1ccc(S(C)(=O)=O)cc1 (stereo not drawn) [Example 20]', 'Cmax', 1660),
  ('COC[C@H](C(=O)Nc1cc(Cl)c(-c2ccc(S(=O)(=O)C3CC3)cc2)c(Cl)c1)c1ccc(S(C)(=O)=O)cc1 (single isomer, unassigned) [Example 35]', 'Cmax', 700),
  ('CCS(=O)(=O)c1ccc(-c2c(Cl)cc(NC(=O)C(COC)c3ccc(S(=O)(=O)CC)cc3)cc2Cl)cc1 (stereo not drawn) [Example 13]', 'Cmax', 1220),
  ('CS(=O)(=O)c1ccc(C(CO)C(=O)Nc2cc(Cl)c(-c3ccc(S(=O)(=O)C4CC4)cc3)c(Cl)c2)cc1 (single isomer, unassigned) [Example 37]', 'Cmax', 294),
  ('COCC(C(=O)Nc1ccc(-c2ccc(S(=O)(=O)C3CC3)cc2)c(C(F)(F)F)c1)c1ccc(S(C)(=O)=O)cc1 (single isomer, unassigned) [Example 43]', 'Cmax', 3040),
  ('CCS(=O)(=O)c1ccc(C(COC)C(=O)Nc2cc(Cl)c(-c3ccc(S(C)(=O)=O)cc3)c(Cl)c2)cc1 (stereo not drawn) [Example 15]', 'Cmax', 1060),
  ('CCS(=O)(=O)c1ccc(-c2c(Cl)cc(NC(=O)C(COC)c3ccc(S(C)(=O)=O)cc3)cc2Cl)cc1 (stereo not drawn) [Example 19]', 'Cmax', 419),
  ('CCS(=O)(=O)c1ccc(CC(=O)Nc2cc(Cl)c(-c3ccc(S(=O)(=O)C4CC4)cc3)c(Cl)c2)nc1 [Example 21]', 'Cmax', 611),
  ('CCS(=O)(=O)c1ccc(C(COC)C(=O)Nc2cc(Cl)c(-c3ccc(S(=O)(=O)C4CC4)cc3)c(Cl)c2)cc1 (single isomer, unassigned) [Example 41]', 'Cmax', 1450),
  ('CCS(=O)(=O)c1ccc(CC(=O)Nc2cc(Cl)c(-c3ccc(S(C)(=O)=O)cc3)c(Cl)c2)cc1 [Example 2]', 'Cmax', 3030),
  ('CS(=O)(=O)c1ccc(CC(=O)Nc2cc(Cl)c(-c3ccc(S(=O)(=O)C4CC4)cc3)c(Cl)c2)cc1 [Example 11]', 'Cmax', 3810),
  ('CCS(=O)(=O)c1ccc(-c2c(Cl)cc(NC(=O)Cc3ccc(S(=O)(=O)CC)cn3)cc2Cl)cc1 [Example 5]', 'Cmax', 1770);
